# TARGET SYSTEM: Bac-F (UniProt P03420 26-524)
# Sequence (P03420 26-524): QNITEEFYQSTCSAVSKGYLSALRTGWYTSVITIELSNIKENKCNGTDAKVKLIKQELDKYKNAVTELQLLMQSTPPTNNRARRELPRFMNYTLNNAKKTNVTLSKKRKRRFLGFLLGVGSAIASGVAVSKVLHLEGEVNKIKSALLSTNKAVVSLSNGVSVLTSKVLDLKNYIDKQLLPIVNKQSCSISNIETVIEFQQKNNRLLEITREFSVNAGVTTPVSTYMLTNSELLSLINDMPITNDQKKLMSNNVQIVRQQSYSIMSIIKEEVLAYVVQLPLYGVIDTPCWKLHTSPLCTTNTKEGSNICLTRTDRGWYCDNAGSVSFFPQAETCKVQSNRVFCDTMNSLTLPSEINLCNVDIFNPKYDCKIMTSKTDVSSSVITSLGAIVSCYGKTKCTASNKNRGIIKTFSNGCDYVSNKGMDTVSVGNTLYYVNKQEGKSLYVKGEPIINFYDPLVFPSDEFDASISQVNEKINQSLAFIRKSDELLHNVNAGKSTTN
# ASSAY PROCEDURE: BIAcore, Mab vs Bac-F, 1:1
Known number in parentheses after KD (fold vs SYNAGIS) of a selection of binders
PARAMETER: number in parentheses after KD (fold vs SYNAGIS) (fold)

{"BINDER": "A1e9 (monoclonal antibody) (antibody, V domains shown) VH: QVTLRESGPALVKPTQTLTLTCTFSGFSLSTAGMSVGWIRQPPGKALEWLADIWWDGKKHYNPSLKDRLTISKDTSKNQVVLKVTNMDPADTATYYCARDMIFNWYFDVWGQGTTVTVSS VL: DIQMTQSPSTLSASVGDRVTITCSLSSRVGYMHWYQQKPGKAPKLLIYDTFKLSSGVPSRFSGSGSGTEFTLTISSLQPDDFATYYCFQGSGYPFTFGGGTKVEIK", "OBS VALUE": 12}
{"BINDER": "P12f2 (monoclonal antibody) (antibody, V domains shown, also called Pf12; P1212) VH: QVTLRESGPALVKPTQTLTLTCTFSGFSLSTPGMSVGWIRQPPGKALEWLADIWWDDKKHYNPSLKDRLTISKDTSKNQVVLKVTNMDPADTATYYCARDMIFNFYFDVWGAGTTVTVSS VL: DIQMTQSPSTLSASVGDRVTITCSLSSRVGYMHWYQQKPGKAPKLLIYDTFYLSSGVPSRFSGSGSGTEFTLTISSLQPDDFATYYCFQGSGYPFTFGGGTKVEIK", "OBS VALUE": 13}
{"BINDER": "A13c4 (monoclonal antibody) (antibody, V domains shown) VH: QVTLRESGPALVKPTQTLTLTCTFSGFSLSTAGMSVGWIRQPPGKALEWLADIWWDGKKSYNPSLKDRLTISKDTSKNQVVLKVTNMDPADTATYYCARDMIFNFYFDVWGQGTTVTVSS VL: DIQMTQSPSTLSASVGDRVTITCSLSSRVGYMHWYQQKPGKAPKLLIYDTMYQSSGVPSRFSGSGSGTEFTLTISSLQPDDFATYYCFQGSGYPFTFGGGTKVEIK", "OBS VALUE": 30}
{"BINDER": "A8c7 (monoclonal antibody) (antibody, V domains shown) VH: QVTLRESGPALVKPTQTLTLTCTFSGFSLSTAGMSVGWIRQPPGKALEWLADIWWDDKKSYNPSLKDRLTISKDTSKNQVVLKVTNMDPADTATYYCARDMIFNWYFDVWGQGTTVTVSS VL: DIQMTQSPSTLSASVGDRVTITCSPSSRVGYMHWYQQKPGKAPKLLIYDTRYQSSGVPSRFSGSGSGTEFTLTISSLQPDDFATYYCFQGSGYPFTFGGGTKLEIK", "OBS VALUE": 19}
{"BINDER": "A4B4 (monoclonal antibody) (antibody, V domains shown, also called A4B4/A4B4 (HC/LC)) VH: QVTLRESGPALVKPTQTLTLTCTFSGFSLSTAGMSVGWIRQPPGKALEWLADIWWDDKKHYNPSLKDRLTISKDTSKNQVVLKVTNMDPADTATYYCARDMIFNFYFDVWGQGTTVTVSS VL: DIQMTQSPSTLSASVGDRVTITCSASSRVGYMHWYQQKPGKAPKLLIYDTFFLDSGVPSRFSGSGSGTEFTLTISSLQPDDFATYYCFQGSGYPFTFGGGTKLEIK", "OBS VALUE": 195}
{"BINDER": "P12f4 (monoclonal antibody) (antibody, V domains shown) VH: QVTLRESGPALVKPTQTLTLTCTFSGFSLSTPGMSVGWIRQPPGKALEWLADIWWDGKKHYNPSLKDRLTISKDTSKNQVVLKVTNMDPADTATYYCARDMIFNFYFDVWGQGTTVTVSS VL: DIQMTQSPSTLSASVGDRVTITCSLSSRVGYMHWYQQKPGKAPKLLIYDTRGLPSGVPSRFSGSGSGTEFTLTISSLQPDDFATYYCFQGSGYPFTFGGGTKVEIK", "OBS VALUE": 35}

Data origin, for the record: patent US20020177126A1
